tested on: SK-MEL-2; experiment: NCI tumour cell line growth inhibition, 48 h
Active and inactive are the calls of the source. No stated cut-off is given here; in the data, active = GI50 up to about 1.1 µM and inactive = higher.
Measured quantity: GI50

c1coc(-c2nccc3c2[nH]c2ccccc23)c1 :: > 100 µM (inactive)

Report GI50 for each item below.
1. O=C1C(NCCc2cc(Br)c(O)c(Br)c2)=CC(=O)c2ncccc21
2. COC(=O)C(NC(=O)OC(C)(C)C)P(=O)(OC)OC (stereo not given)

## Result
1. 8.07 µM (inactive)
2. > 100 µM (inactive)

Report GI50 for each item below.
1. Cc1ccc(NC(=O)CCC(=O)C2CC(=O)CCC2=O)cc1C (stereo not given)
2. CCOC(=O)NC(Nc1ccc(F)c(F)c1)(C(=O)OCC)C(F)(F)F (stereo not given)
3. CC(C)=CCC/C(C)=C/CC/C(C)=C/CSc1ccc(Cl)cc1C(=O)O
4. CC(=O)OC1CC2C(C)(C)C(=O)C=C[C@]2(C)C2CCC3(C)C(c4ccoc4)C(=O)C4OC43[C@]12C (stereo not given in full)
5. COC12OC3(C4OC41)C(C(=O)O[C@H]3CO[Si](C)(C)C(C)(C)C)C2C(=O)Oc1ccccc1 (stereo not given in full)
6. O=C(NCCCCCCCN1CCCCCCC1)C(C1CCCCC1)C1CCCCC1
7. c1c[nH]c(CN2CCN(Cc3ncc[nH]3)CC2)n1

## Result
1: > 100 µM (inactive); 2: 17.5 µM (inactive); 3: 15 µM (inactive); 4: 16 µM (inactive); 5: > 100 µM (inactive); 6: 9.08 µM (inactive); 7: > 100 µM (inactive)

* * *

test system: RXF 631; assay: NCI tumour cell line growth inhibition, 48 h
Calls of active or inactive are those of the source. Rule as the data show it: active = GI50 up to about 1.1 µM and inactive = higher.
Choose the fitting class; nothing outside T for active, F for inactive is accepted.

Cc1nc2c(nc1Cl)nc(Oc1ccc(Cl)cc1)c1ccccc12 :: F

## Task // param item: OCn1nc2c(C3OCCO3)cc3ccccc3n2c1=S ; yields the recorded call
## Result F

## Task Would you kindly repeat that for Cc1cc(C)nc(Sc2c([N+](=O)[O-])ncn2C)n1 ?
## Result F

## Task Would you kindly repeat that for COc1cc(C(N)=O)c(OC)c(OC)c1OC ?
## Result F

* * *

test system: A498; test: NCI tumour cell line growth inhibition, 48 h
Active and inactive are the calls of the source. Cut-off read from the data, not from the text of the source: active = GI50 up to about 1.1 µM and inactive = higher.
Choose the fitting class; nothing outside active, inactive is accepted.

COC12OC3(C4OC41)C(C(=O)O[C@H]3CO[Si](C)(C)C(C)(C)C)C2C(=O)Oc1ccccc1 (stereo partly drawn) :: inactive
Nc1ccc2c(c1)C1=NNC(=O)CC1C2 (stereo not drawn) :: inactive
CC(C(=O)n1ccnc1)N1c2ccccc2Sc2ccccc21 (stereo not drawn) :: inactive
O=[N+]([O-])c1ccc(NSc2ccccc2)cc1 :: inactive
CNC(=O)c1cccc2c(Nc3ccc(NS(C)(=O)=O)cc3OC)c3cccc(C)c3nc12 :: active
CC1OC(OC2C(OC(=O)[C@]34CCC(C)(C)CC3C3=CCC5[C@@]6(C)C[C@H](O)[C@H](OC7OC(COC8OC(CO)C(O)C(O)C8O)C(O)C(O)C7O)[C@@](C)(C(=O)O)C6CC[C@@]5(C)C3(C)CC4)OCC(O)C2O)C(O)C(O)C1OC1OCC(O)C(O)C1O (stereo partly drawn) :: inactive
CC(=O)NC1=C(C)C(=O)c2c(nc3n2CCC3OC(=O)c2ccccc2)C1=O (stereo not drawn) :: inactive

Now, please, on to the next molecule.
## Task // param item: CCCCCN(CCCCC)C(=O)[C@H](CCC(=O)OCc1ccccc1)NC(=O)c1cc2ccccc2[nH]1 ; yields the recorded call
## Result inactive
